Origin of values: PubChem BioAssay (NCI)

Tested on: MALME-3M melanoma
test protocol: NCI tumour cell line growth inhibition, 48 h
I'd appreciate it if you could supply TGI values for the items below.

For orientation, consider the following solved cases.
compound	TGI
C[C@H](CCC(=O)O)[C@H]1CC[C@H]2[C@@H]3[C@H](O)C[C@@H]4C[C@H](O)CC[C@]4(C)[C@H]3CC[C@]12C	> 100 µM
COc1cccc(NC(=O)CC(=O)N2N=C(C)C(N=Nc3ccc(S(=O)(=O)CCOS(=O)(=O)O)cc3)C2=O)c1 (centres undefined)	23.2 µM
COc1ccc([C@]23CCN(S(=O)(=O)c4ccc(C)cc4)[C@H]2[C@H](CO)C2(CC3)OCC(C)(C)CO2)cc1OC	> 100 µM

Field: next compound
Recorded TGI of COc1ccc(NS(=O)c2ccccc2OC)cc1 (centres undefined) , please.
41.1 µM
